From: the NIST ThermoML archive (doi:10.1021/acs.jced.5b00662)

conditions: 348.15 K; 101.33 kPa; Liquid; Concentric cylinders viscometry
experimentalEndpoint: viscosity (mPa·s)
The figure you give is taken to be in mPa·s; do not add the unit.

In [3]: df
Out[3]:
   compoundstructure  displayunit  readoutnumber
0            OCCOCCO        mPa·s          5.019

// returns reported viscosity for input CCOCCO
0.77

Also need COCCOCCO , thanks.
1.268

Also need CCOCCOCCOCC , thanks.
0.621

Also need COCCOCCOCCOC , thanks.
0.903

Also need COCCOCCOCCOCCOC , thanks.
1.358

###

details: 353.15 K; 101.33 kPa; Liquid; Vibrating tube method
Below, each entry is listed alongside its reported mass density.
The figure you give is taken to be in kg/m3; do not add the unit.

Answered cases to consult:
>>> print(df.to_string())
                                   molecule  experimentalendpoint  displayunit  readoutnumber
0               CCOCCO [2-ethoxyethan-1-ol]          mass density        kg/m3          875.8
1  CCOCCOCCOCC [diethylene glycol diethyl ether]          mass density        kg/m3          851.2

// returns reported mass density for input COCCOCCOC [2,5,8-trioxanonane]
884.6

###

Below, each entry is listed alongside its reported mass density.
conditions: 368.15 K; 101.33 kPa; Liquid; Vibrating tube method
± gives the expanded uncertainty stated by the source.
Quote the value and follow it with the unit of measurement.

Answered cases to consult:
   compoundstructure            result
0             CCOCCO   861.2 ± 2 kg/m3
1            OCCOCCO  1062.8 ± 2 kg/m3
2               OCCO  1060.2 ± 1 kg/m3
3           COCCOCCO   953.1 ± 2 kg/m3
4          COCCOCCOC   869 ± 1.1 kg/m3

// returns reported mass density for input OCCOCCOCCO
1065.9 ± 2 kg/m3

Also need COCCOCCOCCOCCOC , thanks.
943.5 ± 2 kg/m3

###

Below, each entry is listed alongside its reported viscosity.
conditions: 358.15 K; 101.33 kPa; Liquid; Concentric cylinders viscometry
± gives the expanded uncertainty stated by the source.
Quote the value and follow it with the unit of measurement.

// returns reported viscosity for input COCCOCCO
1.094 ± 0.045 mPa·s

Also need COCCOCCOCCOCCOC , thanks.
1.188 ± 0.048 mPa·s

Also need CCOCCO , thanks.
0.666 ± 0.027 mPa·s

###

settings: 303.15 K; 101.33 kPa; Liquid; Sing-around technique in a fixed-path interferometer
Below, each entry is listed alongside its reported speed of sound.
The figure you give is taken to be in m/s; do not add the unit.

Answered cases to consult:
>>> print(df.to_string())
                                compound  displayunit  readoutnumber
0                  OCCO [1,2-ethanediol]          m/s         1642.9
1  COCCOCCO [2-(2-methoxyethoxy)ethanol]          m/s         1398.1
2            OCCOCCO [diethylene glycol]          m/s         1566.9

Now, please, on to the next compound.
// returns reported speed of sound for input CCOCCO [2-ethoxyethan-1-ol]
1286.7
